Test system: SK-OV-3
assay name: Cytotoxicity against human SKOV3 cells after 72 hrs by sulforhodamine B assay
Format: functional, cell-based
test settings: SK-OV-3, 72 h
pIC50: −log10 of the molar value.
Returns y if the recorded pIC50 is greater than or equal to 7, and n otherwise.

>>> category_label("CC(C)[C@]12O[C@H]1[C@@H]1O[C@]13[C@]1(O[C@H]1C[C@H]1C4=C(CC[C@@]13C)C(=O)OC4)[C@]2(O)CNc1ccc2c(c1)CC(=O)O2")
"y"
>>> category_label("CC(C)[C@]12O[C@H]1[C@@H]1O[C@]13[C@]1(O[C@H]1C[C@H]1C4=C(CC[C@@]13C)C(=O)OC4)[C@]2(O)CNc1ccc2ncncc2c1")
"n"
>>> category_label("CC(C)[C@]12O[C@H]1[C@@H]1O[C@]13[C@]1(O[C@H]1C[C@H]1C4=C(CC[C@@]13C)C(=O)OC4)[C@]2(O)CNc1ccc2nccnc2c1")
"n"
>>> category_label("CC(C)[C@]12O[C@H]1[C@@H]1O[C@]13[C@]1(O[C@H]1C[C@H]1C4=C(CC[C@@]13C)C(=O)OC4)[C@]2(O)CNc1ccc2c(c1)C(C)(C)C(=O)N2C")
"y"
>>> category_label("CC(C)[C@]12O[C@H]1[C@@H]1O[C@]13[C@]1(O[C@H]1C[C@H]1C4=C(CC[C@@]13C)C(=O)OC4)[C@]2(O)CNc1ccc2c(c1)C(=O)CCO2")
"y"
>>> category_label("CC(C)[C@]12O[C@H]1[C@@H]1O[C@]13[C@]1(O[C@H]1C[C@H]1C4=C(CC[C@@]13C)C(=O)OC4)[C@]2(O)CNc1ccc2c(cnn2CCN2CCOCC2)c1")
"y"

Consider now this further molecule.
**Query** Decide: is the reported value of pIC50 for `CC(C)[C@]12O[C@H]1[C@@H]1O[C@]13[C@]1(O[C@H]1C[C@H]1C4=C(CC[C@@]13C)C(=O)OC4)[C@]2(O)CNc1ccc2[nH]ncc2c1` equal to or greater than 7?
**Result** y

----------
Assign pIC50 to each entry below.
System: PC-3
assay name: Cytotoxicity against human PC3 cells after 72 hrs by sulforhodamine B assay
Assay type: functional, cell-based
test settings: PC-3, 72 h
One number for each entry, as −log10 of the molar value.

>>> data_value("CC(C)[C@]12O[C@H]1[C@@H]1O[C@]13[C@]1(O[C@H]1C[C@H]1C4=C(CC[C@@]13C)C(=O)OC4)[C@]2(O)CNc1ccc2c(c1)C(=O)CCO2")
6.76
>>> data_value("CC(C)[C@]12O[C@H]1[C@@H]1O[C@]13[C@]1(O[C@H]1C[C@H]1C4=C(CC[C@@]13C)C(=O)OC4)[C@]2(O)CNc1ccc2c(c1)CC(=O)O2")
7.17
>>> data_value("CC(C)[C@]12O[C@H]1[C@@H]1O[C@]13[C@]1(O[C@H]1C[C@H]1C4=C(CC[C@@]13C)C(=O)OC4)[C@]2(O)CNc1ccc2oc(=O)ccc2c1")
6.45
>>> data_value("CC(C)[C@]12O[C@H]1[C@@H]1O[C@]13[C@]1(O[C@H]1C[C@H]1C4=C(CC[C@@]13C)C(=O)OC4)[C@]2(O)CNc1ccc2nn(C)cc2c1")
7.01

**Query** Request: pIC50, test system PC-3, entry `CC(C)[C@]12O[C@H]1[C@@H]1O[C@]13[C@]1(O[C@H]1C[C@H]1C4=C(CC[C@@]13C)C(=O)OC4)[C@]2(O)CNc1ccc2nccnc2c1`
**Result** 6.80

----------
System: SK-OV-3
assay name: Cytotoxicity against human SKOV3 cells after 72 hrs by sulforhodamine B assay
Type: functional, cell-based
test settings: SK-OV-3, 72 h
pIC50: −log10 of the molar value.
Classify as follows. Reported pIC50 greater than or equal to 7: true. Reported pIC50 below: false.

>>> category_label("COC(=O)c1cn(C[C@@]2(O)[C@]34O[C@H]3C[C@H]3C5=C(CC[C@]3(C)[C@@]43O[C@H]3[C@@H]3O[C@@]32C(C)C)C(=O)OC5)nn1")
"false"
>>> category_label("CC(C)[C@]12O[C@H]1[C@@H]1O[C@]13[C@]1(O[C@H]1C[C@H]1C4=C(CC[C@@]13C)C(=O)OC4)[C@]2(O)CNc1ccc2cn[nH]c2c1")
"true"
>>> category_label("CC(C)[C@]12O[C@H]1[C@@H]1O[C@]13[C@]1(O[C@H]1C[C@H]1C4=C(CC[C@@]13C)C(=O)OC4)[C@]2(O)CNc1ccc2nn(C)cc2c1")
"true"

**Query** Dear colleague, could you confirm whether `CC(C)[C@]12O[C@H]1[C@@H]1O[C@]13[C@]1(O[C@H]1C[C@H]1C4=C(CC[C@@]13C)C(=O)OC4)[C@]2(O)CNc1cccc2[nH]ccc12` has pIC50 at or above 7?
**Result** true

**Query** Could you tell me if the measured pIC50 of `COC(=O)c1n[nH]c2ccc(NC[C@@]3(O)[C@]45O[C@H]4C[C@H]4C6=C(CC[C@]4(C)[C@@]54O[C@H]4[C@@H]4O[C@@]43C(C)C)C(=O)OC6)cc12` reaches 7 or more?
**Result** true

**Query** Check the entry `CC(C)[C@]12O[C@H]1[C@@H]1O[C@]13[C@]1(O[C@H]1C[C@H]1C4=C(CC[C@@]13C)C(=O)OC4)[C@]2(O)CNc1ccc2occc(=O)c2c1` : does pIC50 equal or exceed 7?
**Result** false

----------
Test system: SK-OV-3
assay name: Cytotoxicity against human SKOV3 cells after 72 hrs by sulforhodamine B assay
Assay type: functional, cell-based
test settings: SK-OV-3, 72 h
pIC50: −log10 of the molar value.
Give measured pIC50 for each item. Keep answers brief.

Answered cases to consult:
>>> data_value("CC(C)[C@]12O[C@H]1[C@@H]1O[C@]13[C@]1(O[C@H]1C[C@H]1C4=C(CC[C@@]13C)C(=O)OC4)[C@]2(O)Cn1cc(-c2ccccc2)nn1")
"< 5.00"
>>> data_value("CC(C)[C@]12O[C@H]1[C@@H]1O[C@]13[C@]1(O[C@H]1C[C@H]1C4=C(CC[C@@]13C)C(=O)OC4)[C@]2(O)Cn1cc(C2CC2)nn1")
"< 5.00"

**Query** # query: pIC50 | item `CC(C)[C@]12O[C@H]1[C@@H]1O[C@]13[C@]1(O[C@H]1C[C@H]1C4=C(CC[C@@]13C)C(=O)OC4)[C@]2(O)CNc1ccc2c(cnn2C)c1` | system: SK-OV-3
**Result** 7.82

----------
Tested on: SK-OV-3
assay name: Cytotoxicity against human SKOV3 cells after 72 hrs by sulforhodamine B assay
Assay type: functional, cell-based
test settings: SK-OV-3, 72 h
measurement label: pIC50
Give bare numbers, as −log10 of the molar value.

As a guide, the following entries are already answered.
>>> data_value("CC(C)[C@]12O[C@H]1[C@@H]1O[C@]13[C@]1(O[C@H]1C[C@H]1C4=C(CC[C@@]13C)C(=O)OC4)[C@]2(O)CNc1ccc2c(c1)CC(=O)N2")
7.42
>>> data_value("CC(C)[C@]12O[C@H]1[C@@H]1O[C@]13[C@]1(O[C@H]1C[C@H]1C4=C(CC[C@@]13C)C(=O)OC4)[C@]2(O)CNc1ccc2ncccc2c1")
7.07

Okay, now this compound:
**Query** Endpoint output: pIC50 of `CC(C)[C@]12O[C@H]1[C@@H]1O[C@]13[C@]1(O[C@H]1C[C@H]1C4=C(CC[C@@]13C)C(=O)OC4)[C@]2(O)CNc1cccnc1` . Value?
**Result** 6.13

----------
Field: IC50. Provide a value for each of the compounds that follow.
Test system: SK-OV-3
assay name: Cytotoxicity against human SKOV3 cells after 72 hrs by sulforhodamine B assay
Type: functional, cell-based
test settings: SK-OV-3, 72 h
Numbers only, in nM.

>>> data_value("COC(=O)n1ncc2cc(NC[C@@]3(O)[C@]45O[C@H]4C[C@H]4C6=C(CC[C@]4(C)[C@@]54O[C@H]4[C@@H]4O[C@@]43C(C)C)C(=O)OC6)ccc21")
102
>>> data_value("CC(C)[C@]12O[C@H]1[C@@H]1O[C@]13[C@]1(O[C@H]1C[C@H]1C4=C(CC[C@@]13C)C(=O)OC4)[C@]21CN(c2ccc3c(cnn3C)c2)CO1")
79.7
>>> data_value("CC(C)[C@]12O[C@H]1[C@@H]1O[C@]13[C@]1(O[C@H]1C[C@H]1C4=C(CC[C@@]13C)C(=O)OC4)[C@]2(O)CNc1ccc2nn(CCN3CCCCC3)cc2c1")
99

**Query** Entry `CC(C)[C@]12O[C@H]1[C@@H]1O[C@]13[C@]1(O[C@H]1C[C@H]1C4=C(CC[C@@]13C)C(=O)OC4)[C@]2(O)CNc1ccc2nn(CCN3CCOCC3)cc2c1` : reported IC50 = ?
**Result** 77

Source listed as ChEMBL document CHEMBL3112518.
